All figures here come from PubChem BioAssay (NCI).

System: NCI-H522 lung
Experiment Notes: NCI-60 one-dose screen, 48 h
Experimental Parameters: 10 µM unless noted
This is part of a sample that, as a whole, favours compounds with a hit. Of some 83,000 tested, about 20% had one in any assay. Calls of active or inactive are those of the source. The calls were made as follows: active = growth percent below 10; inactive = the rest.
Outcome (select one): T = active, F = inactive

Problem: Could you check what this test reported for `Cc1ncc(-c2ccnc(Nc3ccc(S(C)(=O)=O)cc3)n2)n1C(C)C` ?
Solution: T

Problem: And `CCc1cc2c(cc1N1CCC(N3CCOCC3)CC1)C(C)(C)c1[nH]c3cc(C#N)ccc3c1C2=O` ?
Solution: T

Problem: And `CO[C@@H](C(=O)N1Cc2[nH]nc(NC(=O)c3ccc(N4CCN(C)CC4)cc3)c2C1)c1ccccc1` ?
Solution: F

Problem: And CC(=O)CC1CCCC1c1ccc2ccccc2c1 (stereo not drawn) ?
Solution: F

Problem: And `O=C(COc1cccc(/C=C2\Cc3ccc(Cl)cc3C2=O)c1)Nc1nccs1` ?
Solution: T

Problem: And `NC1(c2ccc(-c3nc4ccn5c(=O)[nH]nc5c4cc3-c3ccccc3)cc2)CCC1` ?
Solution: T

Problem: And COc1cc(NC2CCC(=O)N2c2ccc(Cl)cc2Cl)cc(OC)c1OC (stereo not drawn) ?
Solution: F

Problem: And CCCC(=O)OCC1OC(n2cnc3c(=S)nc(N)[nH]c32)C(OC(=O)CCC)C1OC(=O)CCC (stereo not drawn) ?
Solution: T

Problem: And `Cn1c(=O)c(F)c(Nc2ccc(I)cc2F)c2c(=O)n(C[C@@H](O)CO)cnc21` ?
Solution: F

Problem: And Cc1ccsc1C(NC(=O)c1ccccc1)c1cc(Cl)c2cccnc2c1O (stereo not drawn) ?
Solution: T

Problem: And `O=C(Nc1nc2cccc(-c3ccc(CN4CCS(=O)(=O)CC4)cc3)n2n1)C1CC1` ?
Solution: T

Problem: And Nc1c2c(c(O)c3c1=C(CO)C=N3)=NCCS2=O (stereo not drawn) ?
Solution: T

Problem: And `CS(=O)(=O)N1CCN(Cc2cc3nc(-c4cccc5[nH]ncc45)nc(N4CCOCC4)c3s2)CC1` ?
Solution: F

Problem: And `Clc1ccc(/C=C/c2cc(N3CCOCC3)c3cc(Cl)c(Cl)cc3n2)cc1` ?
Solution: T

Problem: And `CCN(CC)C(=O)C[N+](C)(C)CCOC(c1ccccc1)c1ccccc1` ?
Solution: F

Problem: And `Clc1nc(Cl)c2ncn(C/C=C\Cn3cnc4c(Cl)nc(Cl)nc43)c2n1` ?
Solution: T

Problem: And `CC#CC(=O)N1CCC[C@H]1c1nc(-c2ccc(C(=O)Nc3ccccn3)cc2)c2c(N)nccn12` ?
Solution: F

Problem: And `COc1ccc(-n2c(=O)c3ccccc3n(Cc3ccc(C(=O)NO)cc3)c2=O)cc1` ?
Solution: T

Problem: And CC(N)C(Cc1ccc(Cl)cc1)c1ccc(Cl)cc1 (stereo not drawn) ?
Solution: T

Problem: And `Cc1cc(Nc2ncnc3ccc(NC4=NC(C)(C)CO4)cc23)ccc1Oc1ccn2ncnc2c1` ?
Solution: T

Problem: And `CC(=O)Nc1cccc(-n2c(=O)n(C3CC3)c(=O)c3c(Nc4ccc(I)cc4F)n(C)c(=O)c(C)c32)c1` ?
Solution: F

Problem: And `CCn1c(-c2nonc2N)nc2c(C#CC(C)(C)O)ncc(OC[C@H]3CCCNC3)c21` ?
Solution: F

Problem: And `CCOc1cc2ncc(C#N)c(Nc3ccc(F)c(Cl)c3)c2cc1NC(=O)/C=C/CN(C)C` ?
Solution: T

Problem: And `COC(=O)[C@]12CC[C@@H](C)[C@H](C)[C@@H]1C1=CC[C@@H]3[C@@]4(C)C[C@@H](OC(=O)/C=C/c5ccccc5)[C@H](O)[C@@](C)(CO)[C@@H]4[C@H](O)C[C@@]3(C)[C@]1(C)CC2` ?
Solution: T

Problem: And `COc1ccc(CCCc2c3[n+](cc4c(OC)c(OC)ccc24)CCc2cc4c(cc2-3)OCO4)cc1` ?
Solution: F

Problem: And `C#Cc1cccc(Nc2ncnc3cc(OCCOC)c(OCCOC)cc23)c1` ?
Solution: T

Problem: And `N#CC(C#N)=NO` ?
Solution: F

Problem: And `CCN1CCN(Cc2ccc(NC(=O)Nc3nc(-c4cc(OC)c(OC)c(OC)c4)cs3)cc2C(F)(F)F)CC1` ?
Solution: F

Problem: And `O=C1CCC(=O)CC1` ?
Solution: F

Problem: And C=CCCCOC1[C@H](OCc2ccccc2)C(OCc2ccccc2)C(OC)O[C@@H]1CNC(=O)c1cccc(I)c1 (stereo partly drawn) ?
Solution: F

Problem: And `Cn1cc(-c2ccc(F)c(C(F)(F)F)c2)nc1C1CCN(c2ncnc3[nH]ncc23)CC1` ?
Solution: F

Problem: And `CCN1CCN(Cc2ccc(-c3cc4c(N[C@H](C)c5ccccc5)ncnc4[nH]3)cc2)CC1` ?
Solution: T

Problem: And `Cc1cc2c(-c3nc4ccccn4c3Nc3cccc4ccccc34)c(O)c(O)cc2c(O)c1-c1c(C)cc2c(-c3nc4ccccn4c3Nc3cccc4ccccc34)c(O)c(O)cc2c1O` ?
Solution: F

Problem: And `COc1ccc(Cc2cc(-c3ccccc3C)n[nH]c2=O)cc1` ?
Solution: F

Problem: And `FC(F)(F)c1ccc(CNc2ccc(Cc3c[nH]c4ncc(Cl)cc34)cn2)cn1` ?
Solution: T

Problem: And `Cc1cc(N(CCNc2ccnc3cc(Cl)ccc23)Cc2cccs2)nc(Cl)n1` ?
Solution: T

Problem: And `Cn1ncc(Cl)c1-c1cc(C(=O)N[C@H](CN)Cc2cccc(F)c2)sc1Cl` ?
Solution: T

Problem: And `CCCCCCCC(=O)SCC/C=C/[C@@H]1CC(=O)NCc2cc(ccn2)C2=N[C@@](C)(CS2)C(=O)N[C@@H](C(C)C)C(=O)O1` ?
Solution: T
